System: Staphylococcus aureus
Assay: Antibacterial activity against Staphylococcus aureus XU21 by broth microdilution method
Assay type: functional
Items are presented alongside their recorded MIC.
Give just the numeric value; µg/mL need not be written.

Solved entries:
compound	observable	meas.value
CC(=O)NC[C@H]1CN(c2ccc(N3CCOCC3)c(F)c2)C(=O)O1 [LINEZOLID]	MIC	1
C=C[C@]1(C)C[C@@H](OC(=O)CSCCN(CC)CC)[C@]2(C)[C@H](C)CC[C@]3(CCC(=O)[C@H]32)[C@@H](C)[C@@H]1O [TIAMULIN]	MIC	1
Cc1onc(-c2ccccc2)c1C(=O)N[C@@H]1C(=O)N2[C@@H]1SC(C)(C)[C@@H]2C(=O)O [OXACILLIN]	MIC	0.12
O=C(N[C@H](CO)[C@H](O)c1ccc([N+](=O)[O-])cc1)C(Cl)Cl [CHLORAMPHENICOL]	MIC	8
CC[C@H]1OC(=O)[C@H](C)[C@@H](O[C@H]2C[C@@](C)(OC)[C@@H](O)[C@H](C)O2)[C@H](C)[C@@H](O[C@@H]2O[C@H](C)C[C@H](N(C)C)[C@H]2O)[C@](C)(O)C[C@@H](C)C(=O)[C@H](C)[C@@H](O)[C@]1(C)O [ERYTHROMYCIN]	MIC	0.5
CS(=O)(=O)c1ccc([C@@H](O)[C@@H](CF)NC(=O)C(Cl)Cl)cc1 [FLORFENICOL]	MIC	4
CCC[C@@H]1C[C@@H](C(=O)N[C@@H]([C@H]2O[C@H](SC)[C@H](O)[C@@H](O)[C@H]2O)[C@H](C)Cl)N(C)C1 [CLINDAMYCIN]	MIC	0.25

Could you now look at the following compound, please?
Exercise: Report MIC for CC1=C\[C@@H](O)CC(=O)Cc2nc(co2)C(=O)N2CCC=C2C(=O)O[C@H](C(C)C)[C@H](C)/C=C/C(=O)NC\C=C\1 [VIRGINIAMYCIN FACTOR M1] please.
Solution: 1

* * *

Listed next: entries and their corresponding MIC.
Test system: Staphylococcus aureus
Experiment: Antibacterial activity against pSCFS7-deficient methicillin-resistant Staphylococcus aureus M05/0060-C1 by broth microdilution method
Type: functional
State just the number; it will be interpreted in µg/mL.

smiles	study.system	MIC / µg/mL
CS(=O)(=O)c1ccc([C@@H](O)[C@@H](CF)NC(=O)C(Cl)Cl)cc1	Staphylococcus aureus	4

Exercise: API: value(readout=MIC, system=Staphylococcus aureus) for record C=C[C@]1(C)C[C@@H](OC(=O)CSCCN(CC)CC)[C@]2(C)[C@H](C)CC[C@]3(CCC(=O)[C@H]32)[C@@H](C)[C@@H]1O
Solution: 1

* * *

System: Staphylococcus aureus
Assay: Antibacterial activity against methicillin-resistant Staphylococcus aureus M05/0060 harboring cfr-encoding conjugative pSCFS7 and fexA by broth microdilution method
Type: functional
observable: MIC (µg/mL)
State the answer as a number, implicitly in µg/mL.

Guide cases for MIC, answers given:
smiles	study.system	unit.descriptor	MIC
CS(=O)(=O)c1ccc([C@@H](O)[C@@H](CF)NC(=O)C(Cl)Cl)cc1	Staphylococcus aureus	µg/mL	256
O=C(N[C@H](CO)[C@H](O)c1ccc([N+](=O)[O-])cc1)C(Cl)Cl	Staphylococcus aureus	µg/mL	256
CC1=C\[C@@H](O)CC(=O)Cc2nc(co2)C(=O)N2CCC=C2C(=O)O[C@H](C(C)C)[C@H](C)/C=C/C(=O)NC\C=C\1	Staphylococcus aureus	µg/mL	32

Exercise: If you can, please state the reported MIC value of CC(=O)NC[C@H]1CN(c2ccc(N3CCOCC3)c(F)c2)C(=O)O1 .
Solution: 8

* * *

Test system: Staphylococcus aureus
Experiment: Antibacterial activity against pSCFS7-deficient methicillin-resistant Staphylococcus aureus M05/0060-C1 by broth microdilution method
Type: functional
Measured MIC by item
Respond numerically; units are mg/L and should not be typed.

smiles	MIC, mg/L
CC1=C\[C@@H](O)CC(=O)Cc2nc(co2)C(=O)N2CCC=C2C(=O)O[C@H](C(C)C)[C@H](C)/C=C/C(=O)NC\C=C\1	1

Exercise: State its MIC on Staphylococcus aureus: CC(=O)NC[C@H]1CN(c2ccc(N3CCOCC3)c(F)c2)C(=O)O1
Solution: 1

Exercise: Try the compound CCC[C@@H]1C[C@@H](C(=O)N[C@@H]([C@H]2O[C@H](SC)[C@H](O)[C@@H](O)[C@H]2O)[C@H](C)Cl)N(C)C1
Solution: 0.25

Exercise: Please answer likewise for O=C(N[C@H](CO)[C@H](O)c1ccc([N+](=O)[O-])cc1)C(Cl)Cl
Solution: 8

* * *

# key: entry, value: MIC
Tested on: Staphylococcus aureus
Test: Antibacterial activity against methicillin-resistant Staphylococcus aureus M05/0060 harboring cfr-encoding conjugative pSCFS7 and fexA by broth microdilution method
Assay type: functional

compound	MIC
C=C[C@]1(C)C[C@@H](OC(=O)CSCCN(CC)CC)[C@]2(C)[C@H](C)CC[C@]3(CCC(=O)[C@H]32)[C@@H](C)[C@@H]1O [TIAMULIN]	≥ 128 µg/mL

Exercise: # value lookup — system Staphylococcus aureus, readout MIC, item CCC[C@@H]1C[C@@H](C(=O)N[C@@H]([C@H]2O[C@H](SC)[C@H](O)[C@@H](O)[C@H]2O)[C@H](C)Cl)N(C)C1 [CLINDAMYCIN]
Solution: ≥ 128 µg/mL

Exercise: Also need CC[C@H]1OC(=O)[C@H](C)[C@@H](O[C@H]2C[C@@](C)(OC)[C@@H](O)[C@H](C)O2)[C@H](C)[C@@H](O[C@@H]2O[C@H](C)C[C@H](N(C)C)[C@H]2O)[C@](C)(O)C[C@@H](C)C(=O)[C@H](C)[C@@H](O)[C@]1(C)O [ERYTHROMYCIN] , thanks.
Solution: ≥ 64 µg/mL

Exercise: Next: Cc1onc(-c2ccccc2)c1C(=O)N[C@@H]1C(=O)N2[C@@H]1SC(C)(C)[C@@H]2C(=O)O [OXACILLIN]
Solution: ≥ 32 µg/mL
